Taken from PubChem BioAssay (NCI).

Test system: A549/ATCC NSCLC
Assay: NCI-60 one-dose screen, 48 h (100 = growth as untreated, 0 = no growth, -100 = all killed)
Conditions: 10 µM unless noted
This is part of a sample that, as a whole, favours compounds with a hit. Of some 83,000 tested, about 20% had one in any assay.
Listing of entries alongside the reported growth.
Just the number please, in %, no unit attached.

// known answers, use as guide
MOLECULE: COc1ccc(COC=O)cc1
UNIT: %
growth: 106
//
MOLECULE: C/C(=C\c1ccccc1)C(O)C(=O)c1nc2ccc([N+](=O)[O-])cc2[nH]c1=O (configuration not stated)
UNIT: %
growth: 85.7
//
MOLECULE: CC(=O)Nc1cscc1NC(C)=O
UNIT: %
growth: 104
//
MOLECULE: ON=C(C1CCCCC1)C1CCCCC1
UNIT: %
growth: 95.9
//
MOLECULE: O=[N+]([O-])c1ccc(NC(c2ccccc2)c2ccc3cccnc3c2O)cc1 (configuration not stated)
UNIT: %
growth: 13.8
//
MOLECULE: N=c1sc2ccccc2n1CC(=O)O
UNIT: %
growth: 83.7
//
MOLECULE: O=c1[nH]c(=S)[nH]n1C(=S)n1[nH]c(=S)[nH]c1=O
UNIT: %
growth: 93.6
//
MOLECULE: COc1ccc2nccc(Cl)c2c1
UNIT: %
growth: 91.9

Field request: growth | item: `S=c1nn[nH]n1C1CCCCC1`
106

Field request: growth | item: `COc1ccc(CCNC(=S)NN)cc1OC`
106

Field request: growth | item: `C/C=C/C(=O)OCCCCCCCCCCCC`
84.2

Field request: growth | item: `COc1ccc(S(=O)(=O)c2ccc(F)cc2)cc1`
82.4

---

Tested on: MOLT-4 leukemia
Experiment: NCI-60 one-dose screen, 48 h
Conditions: 10 µM unless noted
About 83,000 compounds went through this panel and 20% of them were active in at least one assay; those are over-represented in the sample as a whole. Activity calls are given as the source filed them. How the source made its calls: active means growth percent below 10; inactive means the rest.
Permitted responses: active, inactive

Examples from the recorded data:
COMPOUND: CSc1nc(N)c(N)c(N)n1
ASSAY SYSTEM: MOLT-4 leukemia
CLASS NAME: inactive

COMPOUND: CC(O)CCNC(c1ccccc1)C(O)c1ccccc1 (stereo not drawn)
ASSAY SYSTEM: MOLT-4 leukemia
CLASS NAME: inactive

COMPOUND: CC(=O)Nc1ccc2oc(=O)ccc2c1
ASSAY SYSTEM: MOLT-4 leukemia
CLASS NAME: inactive

COMPOUND: Cc1c(Cl)c(C)c(Cc2c(C)c(Cl)c(C)c(Cl)c2O)c(O)c1Cl
ASSAY SYSTEM: MOLT-4 leukemia
CLASS NAME: inactive

COMPOUND: C#CCOC(=O)C(N)CS (stereo not drawn)
ASSAY SYSTEM: MOLT-4 leukemia
CLASS NAME: inactive

COMPOUND: CCOC(=N)c1ccc(C(=N)OCC)cc1
ASSAY SYSTEM: MOLT-4 leukemia
CLASS NAME: inactive

COMPOUND: CC1=CC(=O)c2cccc(NC3=NCCO3)c21
ASSAY SYSTEM: MOLT-4 leukemia
CLASS NAME: inactive

COMPOUND: C/C(=C\c1ccccc1)C(O)C(=O)c1nc2ccc([N+](=O)[O-])cc2[nH]c1=O (stereo not drawn)
ASSAY SYSTEM: MOLT-4 leukemia
CLASS NAME: inactive

Tell me the assay call for `CCCCNC(=O)c1ccccc1C` please.
inactive

Tell me the assay call for `COc1ccc(CCNC(=S)NN)cc1OC` please.
inactive

Tell me the assay call for CN(C)CC(CN(C)C)C(O)c1ccccc1 (stereo not drawn) please.
inactive

Tell me the assay call for `Cc1c(O)nc(N)[nH]c1=O` please.
inactive

Tell me the assay call for `Nc1ccc2ccc(NS(=O)(=O)N3CCCCC3)cc2c1` please.
inactive

Tell me the assay call for `OCCS` please.
inactive

Tell me the assay call for O=C1C=CC(n2cc(F)c(=O)[nH]c2=O)O1 (stereo not drawn) please.
inactive
